Parameter: ratio to parent. Scope: all listed entries.
B1: full-length mouse BTLA-EGFP, on cells [mouse] / full-length WT mouse HVEM-mCherry, on cells [mouse] (parent complex)
chain 1: EKATKRNDEECPVQLTITRNSKQSARTGELFKIQCPVKYCVHRPNVTWCKHNGTICVPLEVSPQLYTSWEENQSVPVFVLHFKPIHLSDNGSYSCSTNFNSQVINSHSVTIHVRERTQNSSEHPLITVSDIPDATNASGPSTMEERPGRTWLLYTLLPLGALLLLLACVCLLCFLKRIQGKEKKPSDLAGRDTNLVDIPASSRTNHQALPSGTGIYDNDPWSSMQDESELTISLQSERNNQGIVYASLNHCVIGRNPRQENNMQEAPTEYASICVRS
chain 2: QPSCRQEEFLVGDECCPMCNPGYHVKQVCSEHTGTVCAPCPPQTYTAHANGLSKCLPCGVCDPDMGLLTWQECSSWKDTVCRCIPGYFCENQDGSHCSTCLQHTTCPPGQRVEKRGTHDQDTVCADCLTGTFSLGGTQEECLPWTNCSAFQQEVRRGTNSTDTTCSSQVVYYVVSILLPLVIVGAGIAGFLICTRRHLHTSSVAKELEPFQEQQENTIRFPVTEVGFAETEEETASN

- Variants of: B1
- MEASUREMENT NOTES: flow cytometry, cell–cell method; read off a plot

Record chain 2 H48D, chain 2 L52R . Reported ratio to parent: ~1.4

Value of ratio to parent reported for the variant chain 2 G34D, chain 2 V36R is ~0.05

ratio to parent for chain 2 G34D, chain 2 V36D is ~0.06

The variant listed as chain 2 H48A, chain 2 L52A shows ratio to parent equal to ~0.88

Note to self: ratio to parent recorded for chain 2 H48D, chain 2 L52A was ~1

// ratio to parent lookup, variant = chain 2 G34D, chain 2 V36A , result: ~0.07

The measured ratio to parent associated with chain 2 G34R, chain 2 V36A reads ~0.06

These entries and their values trace back to paper PMC8558838.
